measurement target: HCMV polymerase (Human cytomegalovirus)
Construct: made in house; host or cells: recombinant baculovirus-infected SF-9 insect cells
Sequence (P08546 whole entry): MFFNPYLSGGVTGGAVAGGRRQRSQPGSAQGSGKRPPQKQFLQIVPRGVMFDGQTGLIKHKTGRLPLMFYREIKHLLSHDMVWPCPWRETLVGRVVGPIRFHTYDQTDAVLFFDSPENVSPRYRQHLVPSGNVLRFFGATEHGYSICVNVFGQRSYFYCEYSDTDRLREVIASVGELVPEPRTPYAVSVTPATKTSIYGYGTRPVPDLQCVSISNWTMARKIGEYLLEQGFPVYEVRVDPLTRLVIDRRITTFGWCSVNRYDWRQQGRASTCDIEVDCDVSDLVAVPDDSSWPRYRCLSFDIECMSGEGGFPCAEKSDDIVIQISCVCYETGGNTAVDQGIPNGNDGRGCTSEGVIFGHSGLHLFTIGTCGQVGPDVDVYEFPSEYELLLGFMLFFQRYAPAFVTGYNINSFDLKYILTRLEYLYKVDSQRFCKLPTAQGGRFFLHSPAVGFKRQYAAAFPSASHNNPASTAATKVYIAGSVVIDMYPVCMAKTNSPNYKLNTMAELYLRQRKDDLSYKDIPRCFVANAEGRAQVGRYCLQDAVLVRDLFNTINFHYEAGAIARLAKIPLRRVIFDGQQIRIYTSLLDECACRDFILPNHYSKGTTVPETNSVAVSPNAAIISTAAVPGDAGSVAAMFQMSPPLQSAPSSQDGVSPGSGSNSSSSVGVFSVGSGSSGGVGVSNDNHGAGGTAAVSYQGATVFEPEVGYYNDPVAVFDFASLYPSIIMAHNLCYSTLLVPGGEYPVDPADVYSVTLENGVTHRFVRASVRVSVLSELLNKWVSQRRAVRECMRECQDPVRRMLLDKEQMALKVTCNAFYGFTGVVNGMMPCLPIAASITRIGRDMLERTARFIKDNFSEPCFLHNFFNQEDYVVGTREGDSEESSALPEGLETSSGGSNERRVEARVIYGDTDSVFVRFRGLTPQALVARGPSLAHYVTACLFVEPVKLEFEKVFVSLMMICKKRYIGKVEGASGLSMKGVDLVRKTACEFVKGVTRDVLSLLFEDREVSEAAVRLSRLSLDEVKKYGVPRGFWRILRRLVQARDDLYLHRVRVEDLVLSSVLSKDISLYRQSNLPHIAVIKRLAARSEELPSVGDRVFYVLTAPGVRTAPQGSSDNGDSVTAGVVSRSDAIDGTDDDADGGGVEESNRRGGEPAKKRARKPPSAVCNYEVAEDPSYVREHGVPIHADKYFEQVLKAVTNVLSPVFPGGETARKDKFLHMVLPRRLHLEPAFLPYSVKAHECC
experiment description: biochemical
setup conditions: HCMV polymerase; SPA; modified assay: compounds in 100% DMSO, 4.5 mM DTT
pIC50: −log10 of the molar value.
outcome measure: pIC50

molecule	measurement target	measured
Cn1cc(C(=O)NCc2ccc(Cl)cc2)c(=O)c2cc(/C=C/CO)ccc21	HCMV polymerase (Human cytomegalovirus)	6.09
CC[S+]([O-])CCn1cc(C(=O)NCc2ccc(Cl)cc2)c(=O)c2cc(CN3CCOCC3)ccc21 (stereo not drawn)	HCMV polymerase (Human cytomegalovirus)	6.03
O=C(NCc1ccc(Cl)cc1)c1cn(N2CCCCC2)c2ccc(CN3CCOCC3)cc2c1=O	HCMV polymerase (Human cytomegalovirus)	6.06
